System: Ruminococcus gnavus DSM 108212
Assay: fold change of 2-Phenylethylamine concentration vs plate DMSO controls (fold change (ratio)); higher = more amine produced, active = hit call of the paper (significant change in both replicates, either direction)
Conditions: incubation time: 27 h, anaerobic, 37 °C
Where a name gives a salt, the structure may show the parent alone.
Parameter Measured: fold change of 2-Phenylethylamine concentration

get_value(item= Cc1ccc(NC(=O)c2ccc(CN3CCN(C)CC3)cc2)cc1Nc1nccc(-c2cccnc2)n1 [Imatinib] (20 µM) , readout=fold change of 2-Phenylethylamine concentration) returns 1.08 (inactive)

Entry CN(Cc1cnc2nc(N)nc(N)c2n1)c1ccc(C(=O)N[C@@H](CCC(=O)O)C(=O)O)cc1 [Amethopterin] (20 µM) — recorded fold change of 2-Phenylethylamine concentration = 0.832 (inactive)

Data point: CC(C(=O)O)c1ccc(CC2CCCC2=O)cc1 (stereo unspecified) [Loxoprofen] (20 µM) ; fold change of 2-Phenylethylamine concentration = 0.997 (inactive)

CO/N=C(\C(=O)N[C@@H]1C(=O)N2C(C(=O)OCOC(=O)C(C)(C)C)=C(/C=C\c3scnc3C)CS[C@H]12)c1csc(N)n1 [Cefditoren Pivoxil] (20 µM) has a reported fold change of 2-Phenylethylamine concentration of 1.01 (inactive)

The value of fold change of 2-Phenylethylamine concentration measured for the compound CCc1oc2ccccc2c1C(=O)c1ccc(O)cc1 [Benzarone] (20 µM) turned out to be 0.956 (inactive)

Record CCN1CC(CCN2CCOCC2)C(c2ccccc2)(c2ccccc2)C1=O (stereo unspecified) [Doxapram hydrochloride] (20 µM) , field fold change of 2-Phenylethylamine concentration: 1.08 (inactive)

Continuing:
For c1ccc2c(CC3=NCCN3)cccc2c1 [Naphazoline hydrochloride] (20 µM) the compound record lists fold change of 2-Phenylethylamine concentration as 0.994 (inactive)

----------
Test system: Escherichia coli IAI1
Test: fold change of Putrescine concentration vs plate DMSO controls (fold change (ratio)); higher = more amine produced, active = hit call of the paper (significant change in both replicates, either direction)
Settings: incubation time: 27 h, anaerobic, 37 °C
Counter-ions that a name gives are not always drawn.
Parameter threshold = 1. Response is T when fold change of Putrescine concentration meets or exceeds it, else F.

Qu. Please tell me: is the compound O=C1CCC(N2C(=O)c3ccccc3C2=O)C(=O)N1 (stereo not drawn) [Thalidomide] (20 µM) at or over 1 in terms of fold change of Putrescine concentration?
Ans. F

Qu. Hello, I need to know if CN(C)CCC(c1ccc(Cl)cc1)c1ccccn1 (stereo not drawn) [Chlorpheniramine maleate] (20 µM) has measured fold change of Putrescine concentration not below 1. Thanks!
Ans. F

Qu. Textbook exercise: given the entry CNCc1cc(-c2ccccc2F)n(S(=O)(=O)c2cccnc2)c1 [Vonoprazan] (20 µM) , state whether its fold change of Putrescine concentration is greater than or equal to 1.
Ans. F

Qu. fold change of Putrescine concentration >= 1 for CC(=O)CC(c1ccc([N+](=O)[O-])cc1)c1c(O)c2ccccc2oc1=O (stereo not drawn) [Acenocoumarol] (20 µM) ?
Ans. T

Others:
Qu. Could you verify whether the entry CCc1oc2ccccc2c1C(=O)c1ccc(O)cc1 [Benzarone] (20 µM) shows fold change of Putrescine concentration of no less than 1?
Ans. T

Qu. // inclusive: fold change of Putrescine concentration at least 1? input: CO/N=C(\C(=O)N[C@@H]1C(=O)N2C(C(=O)O)=C(COC(N)=O)CS[C@H]12)c1ccco1 [Cefuroxime sodium salt] (20 µM)
Ans. F

Qu. Can CCn1cc(C(=O)O)c(=O)c2cc(F)c(N3CCNCC3)nc21 [Enoxacin] (20 µM) be said to have fold change of Putrescine concentration at or above 1?
Ans. F

----------
Tested on: Clostridium sporogenes DSM 1664
Assay: fold change of Tryptamine concentration vs plate DMSO controls (fold change (ratio)); higher = more amine produced, active = hit call of the paper (significant change in both replicates, either direction)
Settings: incubation time: 27 h, anaerobic, 37 °C
Parameter Measured: fold change of Tryptamine concentration
Respond using a number only.

Completed entries (count: 5):
NC1CCN(c2c(F)cc3c(=O)c(C(=O)O)cn(C4CC4)c3c2Cl)C1 (centres undefined) [Clinafloxacin] (20 µM) yielded fold change of Tryptamine concentration of 0.0514

Data point: CCC(=O)O[C@@H]1CC(=O)O[C@H](C)C/C=C/C=C/[C@H](O)[C@H](C)C[C@H](CC=O)[C@H](O[C@@H]2O[C@H](C)[C@@H](O[C@H]3C[C@@](C)(O)[C@@H](OC(=O)CC)[C@H](C)O3)[C@H](N(C)C)[C@H]2O)[C@H]1OC [Midecamycin] (20 µM) ; fold change of Tryptamine concentration = 0.0271

Lab note: N=c1nc(N2CCCCC2)cc(N)n1O [Minoxidil] (20 µM) gave fold change of Tryptamine concentration of 0.937

So for CC(C(=O)O)c1ccc2c(c1)[nH]c1ccc(Cl)cc12 (centres undefined) [Carprofen] (20 µM) , the logged fold change of Tryptamine concentration turned out to be 0.958

The reported value for COc1ccc2[nH]c([S+]([O-])Cc3ncc(C)c(OC)c3C)nc2n1 (centres undefined) [Tenatoprazole] (20 µM) in terms of fold change of Tryptamine concentration is 1.03

Now for another entry.
Lookup result for COc1cc2/c(=N/c3ccc(Br)cc3F)nc[nH]c2cc1OCC1CCN(C)CC1 [Vandetanib] (20 µM) ; measured fold change of Tryptamine concentration: 1.04

----------
System: Klebsiella aerogenes DSM 30053
Test: growth (OD595) fold change vs plate DMSO controls (fold change (ratio)); higher = more growth
Conditions: incubation time: 27 h, anaerobic, 37 °C
Structures can show the parent of a compound that is named as a salt.
Parameter Measured: growth
Answer with a number only.

These recorded examples may help you get a feel for the data.
Here CCN(CC)CCNC(=O)c1cc(S(C)(=O)=O)ccc1OC [Tiapride hydrochloride] (20 µM) was tested on Klebsiella aerogenes DSM 30053, and its growth came to 0.715

The molecule C[C@H](N)[C@H](O)c1cccc(O)c1 [Metaraminol bitartrate] (20 µM) , when measured on Klebsiella aerogenes DSM 30053, yielded growth of 1.09

Summary line: CCc1ccc(CCOc2ccc(CC3SC(=O)NC3=O)cc2)nc1 (stereo not given) [Pioglitazone] (20 µM) , Klebsiella aerogenes DSM 30053, reported growth = 0.988

Recorded growth for O=P(O)(O)C(O)(Cc1cccnc1)P(=O)(O)O [Risedronic acid monohydrate] (20 µM) on Klebsiella aerogenes DSM 30053 was 1

Given the molecule C[C@@H](O)[C@H]1C(=O)N2C(C(=O)O)=C(SCCNC=N)C[C@H]12 [Imipenem] (20 µM) and test system Klebsiella aerogenes DSM 30053, the measured growth is 0.85

Next:
Considering O=c1[nH]c(=O)n([C@H]2C[C@H](O)[C@@H](CO)O2)cc1C(F)(F)F [Trifluridine] (20 µM) , its growth with Klebsiella aerogenes DSM 30053 was recorded as 0.99

Measured growth for this entry Cc1ccc(C(=O)c2ccc(CC(=O)O)n2C)cc1 [Tolmetin sodium salt dihydrate] (20 µM) on Klebsiella aerogenes DSM 30053: 1.01

For O=C1CN2Cc3c(ccc(Cl)c3Cl)N=C2N1 [Anagrelide] (20 µM) on Klebsiella aerogenes DSM 30053, measured growth was 1.05

Entry CC(C)NC[C@@H](O)COc1ccc(CC(N)=O)cc1 [(R,+) Atenolol] (20 µM) : growth on Klebsiella aerogenes DSM 30053 = 1.12

Note to self: growth of O=C(O)COc1nn(Cc2ccccc2)c2ccccc12 [Bendazac] (20 µM) with Klebsiella aerogenes DSM 30053 was 1.05

Result for CCN(CCO)CCCC(C)Nc1ccnc2cc(Cl)ccc12 (stereo not given) [Hydroxychloroquine sulfate] (20 µM) , tested on Klebsiella aerogenes DSM 30053, growth: 0.95

growth for Klebsiella aerogenes DSM 30053 with input O=C1c2cccc(O)c2C(=O)c2c(O)cccc21 [Danthron] (20 µM) equals 1.01

Measured growth for this entry CC[C@H]1OC(=O)C[C@@H](O)[C@H](C)[C@@H](O[C@@H]2O[C@H](C)[C@@H](O[C@H]3C[C@@](C)(O)[C@@H](O)[C@H](C)O3)[C@H](N(C)C)[C@H]2O)[C@@H](CC=O)C[C@@H](C)C(=O)/C=C/C(C)=C/[C@@H]1CO[C@@H]1O[C@H](C)[C@@H](O)[C@@H](OC)[C@H]1OC [Tylosin] (20 µM) on Klebsiella aerogenes DSM 30053: 0.966

Form field growth for item CC(C)(CO)[C@@H](O)C(=O)NCCC(=O)NCCSSCCNC(=O)CCNC(=O)[C@H](O)C(C)(C)CO [D-Pantethine] (20 µM) on Klebsiella aerogenes DSM 30053: 1.02

Measured growth (Klebsiella aerogenes DSM 30053), entry O=C(O)[C@H]1/C(=C/CO)O[C@@H]2CC(=O)N21 [Clavulanate potassium salt] (20 µM) : 0.977
